Where do the numbers come from? From patent US20160009693A1.

System: Solanum nigrum (SOLNI)
assay-overview: Herbicidal glasshouse test, pre-emergence, SOLNI
Assay type: in vivo
measurement-setup: applied at 1000 g/h, evaluated after 13 days
measure-name: PRE Application SOLNI, percentage damage (five point scale)

- smiles-record: "C=CCn1c(=O)c(C(=O)Nc2nnnn2C)nn(C)c1=O"
  target-under-test: "Solanum nigrum (SOLNI)"
  measured: "5 (5=80-100%)"
- smiles-record: "Cn1nnnc1NC(=O)c1nn(C)c(=O)n(Cc2cc(F)ccc2F)c1=O"
  target-under-test: "Solanum nigrum (SOLNI)"
  measured: "5 (5=80-100%)"
- smiles-record: "Cn1nnnc1NC(=O)c1nn(C)c(=O)n(Cc2c(F)cccc2F)c1=O"
  target-under-test: "Solanum nigrum (SOLNI)"
  measured: "5 (5=80-100%)"
- smiles-record: "Cn1nnnc1NC(=O)c1nn(C)c(=O)n(CC2CCCCC2)c1=O"
  target-under-test: "Solanum nigrum (SOLNI)"
  measured: "5 (5=80-100%)"
- smiles-record: "Cn1nnnc1NC(=O)c1nn(C)c(=O)n(-c2cc(Cl)cc(Cl)c2)c1=O"
  target-under-test: "Solanum nigrum (SOLNI)"
  measured: "5 (5=80-100%)"
- smiles-record: "Cn1ncnc1NC(=O)c1nn(C)c(=O)n(-c2cccc(F)c2F)c1=O"
  target-under-test: "Solanum nigrum (SOLNI)"
  measured: "5 (5=80-100%)"
- smiles-record: "Cn1nnnc1NC(=O)c1nn(C)c(=O)n(Cc2cccc(F)c2F)c1=O"
  target-under-test: "Solanum nigrum (SOLNI)"
  measured: "5 (5=80-100%)"
- smiles-record: "Cn1nnnc1NC(=O)c1nn(C)c(=O)n(-c2cc(C(F)(F)F)cc(C(F)(F)F)c2)c1=O"
  target-under-test: "Solanum nigrum (SOLNI)"
  measured: "5 (5=80-100%)"
- smiles-record: "COc1ccc([N+](=O)[O-])cc1Cn1c(=O)c(C(=O)Nc2nnnn2C)nn(C)c1=O"
  target-under-test: "Solanum nigrum (SOLNI)"
  measured: "5 (5=80-100%)"
